Each recorded value in this set is attributed to the supplement of paper PMC6555819.

System: VDR homodimer (NR concentration 270 nM)
assay-explanation: PBM binding z-score (relative to random genomic background probes); higher = stronger binding; sequences stand for … in GC…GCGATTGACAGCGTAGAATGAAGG
Quick rule: PBM binding z-score of at least 2 means MET, below that means NOT MET.

Please review the following examples before continuing.
construct-sequence | assigned-label
TCTATTAGTTGAAGGGCAAGCGACGAGTCCGTTT | NOT MET
CTCGAAAGGTCGTGCTCAGCTGAGTATACCAAAC | NOT MET
TATACAGGGTCAAATGCCAGAGTACGAATGTCGA | MET
AGAACGAGGGCAATGAGCTGATAGCACGGGTGGC | NOT MET

Kindly consider the entry below.
Could you tell me if the measured PBM binding z-score of ATCTCTAGGTAACAAGTTCAGTTAAAGAGAGGAC reaches 2 or more?
MET
